Provenance of the data: patent US6218384A

# method notes: Suppression of anxiety (punished licking, conflict test) in the adult male rat
# Assay type: in vivo, male rats
# condition label: Table 1, ip, minimum effective dose, >10 = active dose not determined, read-out: Conflict (ip) MED
Would you mind telling me the reported minimal effective dose of each entry?
Give bare numbers, in mg/kg.

structure notation	minimal effective dose, mg/kg
NC(=O)C1=C2Nc3ccccc3N2CCC1=O	10
CN(C)c1ccccc1NC(=O)C1=C2Nc3ccccc3N2CCC1=O	10
O=C1CCN2C(=C1C(=O)Nc1c(F)cc(F)cc1F)Nc1ccccc12	3

Input: Name the recorded minimal effective dose of the item O=C1CCN2C(=C1C(=O)Nc1ccncc1)Nc1cc(F)ccc12 in your answer.
Output: 3

###

# assay target: benzodiazepine site of the GABA-A receptor
# method notes: Benzodiazepine Receptor Binding Assay (inhibition of 3H-flunitrazepam binding)
# condition label: Table 2; ca. 3 nM 3H-flunitrazepam
Would you mind telling me the reported IC50 of each entry?
Numbers only, in nM.

Value sought for every listed molecule: IC50.
1. O=C1CCN2C(=C1C(=O)Oc1ccccc1)Nc1ccccc12
2. O=C1CCN2C(=C1C(=S)Nc1ccccc1)Nc1ccccc12

Output:
[200, 360]

Input: Name the recorded IC50 of the item O=C1CCN2C(=C1C(=O)Sc1ccccc1)Nc1ccccc12 in your answer.
Output: 29

###

# assay target: benzodiazepine site of the GABA-A receptor
# method notes: Benzodiazepine Receptor Binding Assay (inhibition of 3H-flunitrazepam binding)
# condition label: Table 1; ca. 3 nM 3H-flunitrazepam, 25° C., 10-20 min; >10,000 = not active
Would you mind telling me the reported pIC50 of each entry?
One number for each entry, as −log10 of the molar value.

Below, 3 compounds whose answers are already recorded.
structure notation	pIC50
O=C1CCN2C(=C1C(=O)Nc1ccncc1)Nc1cc(F)ccc12	7.38
COc1ccccc1NC(=O)C1=C2Nc3ccccc3N2CCC1=O	6.00
CN(C)c1ccc(NC(=O)C2=C3Nc4cc(Cl)ccc4N3CCC2=O)cc1	6.66

Input: Name the recorded pIC50 of the item O=C1CCN2C(=C1C(=O)Nc1c(F)cccc1F)Nc1cc(Cl)ccc12 in your answer.
Output: 8.22

###

Would you mind telling me the reported ED50 of each entry?
# method notes: Suppression of metrazol-induced convulsions
# Type: in vivo, male CD1 mice
# condition label: Mus musculus, 0.5 h; Table 1; ip; mice; clonic convulsions after sc CD90 metrazol; >30 = active dose not determined; read-out: Metrazol (ip) ED50
Answers are plain numbers, in mg/kg.

Below, 2 compounds whose answers are already recorded.
structure notation	reading
O=C1CCN2C(=C1C(=O)Nc1c(F)cc(F)cc1F)Nc1ccccc12	1
Cc1cccc2c1NC1=C(C(=O)Nc3ccccc3)C(=O)CCN12	1

Value sought for every listed compound: ED50.
1. O=C1CCN2C(=C1C(=O)Nc1c(Cl)c(F)nc(F)c1Cl)Nc1ccccc12
2. COc1cccc(NC(=O)C2=C3Nc4ccccc4N3CCC2=O)c1

Output:
1. 10
2. 0.3

Value sought for every listed compound: ED50.
1. O=C1CCN2C(=C1C(=O)Nc1ccc(F)cc1F)Nc1ccccc12
2. CCN(CC)c1ccc(NC(=O)C2=C3Nc4ccccc4N3CCC2=O)cc1
3. CSc1ccc(NC(=O)C2=C3Nc4ccccc4N3CCC2=O)cc1
4. O=C1CCN2C(=C1C(=O)Nc1cccnc1Cl)Nc1ccccc12

Output:
1. 1
2. 3
3. 10
4. 3

###

# method notes: Suppression of anxiety (punished licking, conflict test) in the adult male rat
# Type: in vivo, male rats
# condition label: Table 1, ip, minimum effective dose, >10 = active dose not determined, read-out: Conflict (ip) MED
Would you mind telling me the reported minimal effective dose of each entry?

Below, 4 compounds whose answers are already recorded.
structure notation	readout name	reading
CC(C)NC(=O)C1=C2Nc3ccccc3N2CCC1=O	minimal effective dose	> 10 mg/kg
NS(=O)(=O)c1ccc(NC(=O)C2=C3Nc4ccccc4N3CCC2=O)cc1	minimal effective dose	10 mg/kg
O=C1CCN2C(=C1C(=O)Nc1c(F)cccc1F)Nc1cc(F)ccc12	minimal effective dose	3 mg/kg
O=C1CCN2C(=C1C(=O)Nc1c(Cl)cccc1Cl)Nc1ccccc12	minimal effective dose	> 10 mg/kg

Query compound follows.
Input: Name the recorded minimal effective dose of the item O=C1CCN2C(=C1C(=O)Nc1ncc(C(F)(F)F)cc1C(F)(F)F)Nc1ccccc12 in your answer.
Output: 10 mg/kg

###

# assay target: benzodiazepine site of the GABA-A receptor
# method notes: Benzodiazepine Receptor Binding Assay (inhibition of 3H-flunitrazepam binding)
# condition label: Table 3; ca. 3 nM 3H-flunitrazepam
Would you mind telling me the reported IC50 of each entry?
One number for each entry, in nM.

Below, 2 compounds whose answers are already recorded.
compound	readout name	unit	reading
CCN1C2=C(C(=O)Nc3ccncc3)C(=O)CCN2c2ccccc21	IC50	nM	80
CN1C2=C(C(=O)Nc3c(F)cc(F)cc3F)C(=O)CCN2c2ccccc21	IC50	nM	13

Value sought for every listed compound: IC50.
1. O=C1CCN2C(=C1C(=O)Nc1ccccc1)N(Cc1ccccc1)c1ccccc12
2. CCN1C2=C(C(=O)Nc3ccccc3F)C(=O)CCN2c2ccccc21
3. CC1CN2C(=C(C(=O)Nc3ccccc3)C1=O)N(C)c1ccccc12 (centres unmarked)

Output:
[12, 2.1, 67]

Value sought for every listed compound: IC50.
1. CCN1C2=C(C(=O)Nc3ccc(N(C)C)cc3)C(=O)CCN2c2ccccc21
2. CCCN1C2=C(C(=O)Nc3ccccc3)C(=O)CCN2c2ccccc21
3. O=C1CCN2C(=C1C(=O)Nc1ccc(F)cc1F)N(Cc1ccccc1)c1ccccc12
4. O=C1CCN2C(=C1C(=O)Nc1ccccc1F)N(Cc1ccccc1)c1ccccc12
5. CCCN1C2=C(C(=O)Nc3ccc(F)cc3F)C(=O)CCN2c2ccccc21
6. CN(C)c1ccc(NC(=O)C2=C3N(C)c4ccccc4N3CCC2=O)cc1

Output:
1. 72
2. 2.5
3. 12
4. 88
5. 2.6
6. 29

Value sought for every listed compound: IC50.
1. CN1C2=C(C(=O)Nc3ccncc3)C(=O)CCN2c2ccccc21
2. CN1C2=C(C(=O)Nc3ccccc3)C(=O)CCN2c2ccccc21

Output:
1. 230
2. 6

###

Would you mind telling me the reported pIC50 of each entry?
# assay target: benzodiazepine site of the GABA-A receptor
# method notes: Benzodiazepine Receptor Binding Assay (inhibition of 3H-flunitrazepam binding)
# condition label: Table 1; ca. 3 nM 3H-flunitrazepam, 25° C., 10-20 min; >10,000 = not active
One number for each entry, as −log10 of the molar value.

Below, 4 compounds whose answers are already recorded.
structure notation	assay target	reading
O=C1CCN2C(=C1C(=O)Nc1ccccc1)Nc1cc(C(F)(F)F)ccc12	benzodiazepine site of the GABA-A receptor	6.02
O=C1CCN2C(=C1C(=O)Nc1ccc(F)cc1)Nc1ccccc12	benzodiazepine site of the GABA-A receptor	6.37
CSc1ccccc1NC(=O)C1=C2Nc3ccccc3N2CCC1=O	benzodiazepine site of the GABA-A receptor	6.14
O=C1CCN2C(=C1C(=O)Nc1ccc(F)cc1F)Nc1ccccc12	benzodiazepine site of the GABA-A receptor	8.00

Value sought for every listed compound: pIC50.
1. CN(C)c1cccc(NC(=O)C2=C3Nc4ccccc4N3CCC2=O)c1
2. O=C1CCN2C(=C1C(=O)Nc1ccccc1)Nc1cc(Cl)ccc12

Output:
1. 7.43
2. 7.18

###

# method notes: Suppression of metrazol-induced convulsions
# Format: in vivo, male CD1 mice
# condition label: Mus musculus, 0.5 h; Table 1; ip; mice; clonic convulsions after sc CD90 metrazol; >30 = active dose not determined; read-out: Metrazol (ip) ED50
readout name: ED50

Below, 3 compounds whose answers are already recorded.
compound	ED50
CN(C)CCc1ccc(NC(=O)C2=C3Nc4ccccc4N3CCC2=O)cc1 [compound 115]	> 30 mg/kg
O=C1CCN2C(=C1C(=O)NCc1cccnc1)Nc1ccccc12 [compound 62]	> 10 mg/kg
O=C1CCN2C(=C1C(=O)Nc1cccc3ccoc13)Nc1ccccc12 [compound 51]	> 10 mg/kg

Value sought for every listed compound: ED50.
1. O=C1CCN2C(=C1C(=O)Nn1cnnc1)Nc1ccccc12 [compound 42]
2. O=C1CCN2C(=C1C(=O)Nc1cnccn1)Nc1ccccc12 [compound 63]
3. O=C1CCN2C(=C1C(=O)Nc1ccccc1F)Nc1ccccc12 [compound 20]

Output:
1. > 10 mg/kg
2. > 10 mg/kg
3. 0.1 mg/kg

Value sought for every listed compound: ED50.
1. Nc1ccccc1NC(=O)C1=C2Nc3ccccc3N2CCC1=O [compound 47]
2. O=C1CCN2C(=C1C(=O)Nc1ccncc1F)Nc1ccccc12 [compound 97]
3. CNC(=O)C1=C2Nc3ccccc3N2CCC1=O [compound 102]

Output:
3 mg/kg
1 mg/kg
> 10 mg/kg

###

# method notes: Horizontal Screen Test for Determining Benzodiazepine Antagonism
# Type: in vivo, male CD1 mice
# condition label: mice; given parenterally with chlordiazepoxide (28 mg/kg, sc); values above 0 considered active
# Method: Some of the compounds of the invention were tested for their ability to antagonize the locomotor discoordinating property of chlordiazepoxide. […] At a pre-determined interval (or intervals) after administration, the animals were tested for their ability to climb to the top side of the inverted screen (pass the test). […]
readout name: percent antagonism (%)
Give bare numbers, in %.

compound	readout name	reading
O=C(Nc1ccc(O)cc1)C1=C(O)CCn2c1nc1ccccc12 [CP 10]	percent antagonism	30
O=C(NC1CCCCC1)C1=C(O)CCn2c1nc1ccccc12 [CP 7]	percent antagonism	17
O=C1CCN2C(=C1C(=O)Nc1ccc([N+](=O)[O-])cc1)Nc1ccccc12 [CP 9]	percent antagonism	30
COc1ccc(NC(=O)C2=C(O)CCn3c2nc2cc(OC)ccc23)cc1 [CP 13]	percent antagonism	100
O=C(Nc1ccccc1F)C1=C(O)CCn2c1nc1cc(Cl)ccc12 [CP 113]	percent antagonism	0
COc1ccc(NC(=O)C2=C(O)CCn3c2nc2ccccc23)cc1OC [CP 8]	percent antagonism	17

Value sought for every listed compound: percent antagonism.
1. COc1ccc2c(c1)nc1n2CCC(O)=C1C(=O)Nc1ccccc1 [CP 12]
2. CNC(=O)C1=C(O)CCn2c1nc1ccccc12 [CP 102]
3. O=C(NCc1ccncc1)C1=C(O)CCn2c1nc1ccccc12 [CP 59]
4. O=C1CCN2C(=C1C(=O)Nc1ncncn1)Nc1ccccc12 [CP 53]

Output:
1: 92; 2: 0; 3: 0; 4: 0
